Measured Kd, listed per entry.
Target: ROP18 in total lysate antigen of T. gondii RH (RH Ag) (Toxoplasma gondii RH strain) (UniProt Q2PAY2)
Sequence (Q2PAY2 whole entry): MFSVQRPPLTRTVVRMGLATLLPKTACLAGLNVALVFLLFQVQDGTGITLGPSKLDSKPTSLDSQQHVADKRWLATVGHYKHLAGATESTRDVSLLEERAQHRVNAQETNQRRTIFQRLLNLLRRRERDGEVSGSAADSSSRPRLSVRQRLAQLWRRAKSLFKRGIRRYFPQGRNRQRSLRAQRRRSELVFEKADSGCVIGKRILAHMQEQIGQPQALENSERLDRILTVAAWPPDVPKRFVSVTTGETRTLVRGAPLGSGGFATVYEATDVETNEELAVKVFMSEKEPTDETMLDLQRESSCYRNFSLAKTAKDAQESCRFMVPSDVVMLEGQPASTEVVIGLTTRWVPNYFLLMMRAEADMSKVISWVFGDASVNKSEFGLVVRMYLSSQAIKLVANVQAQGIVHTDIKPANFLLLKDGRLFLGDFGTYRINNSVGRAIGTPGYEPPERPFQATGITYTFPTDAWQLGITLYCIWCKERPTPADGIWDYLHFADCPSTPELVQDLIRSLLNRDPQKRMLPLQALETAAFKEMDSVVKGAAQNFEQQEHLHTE
Assay: direct ELAA (plate-based aptamer binding)
Conditions: 50 ug/mL RH Ag coated; aptamer 50-500 nM; Direct ELAA: antigen coated in carbonate pH 9.6 overnight 4 C; 1% BSA block; biotin-aptamer in PBS, 0.5% glucose, 0.1% albumin, 1 M MgCl2 (so in the source), 1 h …

{"Biosequence": "CGCACCGATCCGGTGTTAATCTCGACGTCCCTTAAGTTTG [AP002]", "Unit Text": "µM", "Kd": 0.0977}
{"Biosequence": "TCCTGGCAGCGCTTTTGCTTGTTTGCTCTCGTACCTGTCC [AP001]", "Unit Text": "µM", "Kd": 0.0627}

Reference source: paper PMC6863806
